- Assay Procedure: folding stability dG unfold from chymotrypsin proteolysis; higher = more stable
# reported folding stability dG unfold; entries follow
Give just the number in kcal/mol; leave the unit off.

> print(dat)
                        biopolymer.sequence            measured.property  endpoint.unit  readout.value
1  GSNAVEVTLEVEVTITDPKTPDNKTTTVTIPLTVKLPPSVTSLEELEALARERAEAVAAELGGTVVTVTPVS [r1_300_JUSTAS]  folding stability dG unfold       kcal/mol           2.42
2  SAFNIEIEEVDPNEIYIKIDATPEQLEEIAEDIMKNFPGYKVKWEWDDEQGKIWFRIRPVPPPPPEDQNSAG [r14_600_TrROS]  folding stability dG unfold       kcal/mol           1.97
3  SAGGSAGGSLSDLPPGVELIAVGDDVVAVRRPDGSVLVFVRERDRVFVRELSPDVSIEEALADSAGGSAGGS [r12_605_TrMRF]  folding stability dG unfold       kcal/mol           1.52
4  SAGGSAGGPLPLEELRRLLESRPDYEILSVEDESPDYVVVTVRFPFPLPSDEERTLRLRLRFPLSAGGSAGG [r6_152_TrMRF]  folding stability dG unfold       kcal/mol           3.37

Param item = SAVVSVDPATGVVTAKVKVDDTELTVTITRDPATGAWPVTFTPPGSGTPVVLDVPFTSVEEAIELAKRLSAG [r14_803_JUSTAS] ; retrieve measured folding stability dG unfold.
1.56

Entry SAGGSAGGSMELVIPKEEVEKMSEEVVKKIKELAKKANISISETEDSLVIPIKKVSEKVIKELSAGGSAGGS [r12_945_JUSTAS] has what folding stability dG unfold?
0.497

For the sequence shown here, SAGGKYTFTPAPPNSESEVVKKAEELKKKLAEEPGVDKKIEIEIKPSPDGSLTIKVTFSTGTYDAAASAGGS [r16_356_JUSTAS] , give the reported folding stability dG unfold.
1.32

Return reported folding stability dG unfold; argument: SAGGSAGGSAKAKVLEVEEKPVGGVNRFKIEVPLENGEPQKFYVLVEVPEDGDEKFAVKPGSAGGSAGGSAG [r3_94_TrMRF]
0.1

What measured folding stability dG unfold goes with SAGGSAGGSAGGSSMKYFTRSASPDTTFTVKTPNGGVVNVTPTAAPGTYKYTFTLPGNSSAGGSAGGSAGGS [r4_360_JUSTAS] ?
-0.42

----------
- Assay Procedure: folding stability dG unfold (combined trypsin and chymotrypsin); higher = more stable
Collected folding stability dG unfold values appear next to each entry.
All answers are understood in kcal/mol, so give the number only.

Previously resolved entries follow.
> print(dat)
                        biopolymer.sequence  endpoint.unit  readout.value
1  SAGFWIRIDPKNPRIYISGMPPGMIELIAENAGAPDVTPVKPGRPWWDARDNHPDPDAVIPIPPENMMSAGG [r19_270_TrROS]       kcal/mol         0.0233
2  SAGGSAPDDVEVEIKNIHYNPNWGYIMITIKVDGPVDSIEIELPNGWEISVMRDKDGTMTIMFPFPSAGGSA [r15_736_TrROS]       kcal/mol           3.15
3  SAGKKVTILIVVPETEEEAKKLAEELAKELAEKTGLEKVEVKVVPKGMTLEQLKELAKENNVDLVILVSAGG [r19_89_TrROS_Hall]       kcal/mol           3.17

Bench note: what folding stability dG unfold did SAGKPGKTIKVTVPIPDSVKNAKIIVEYPNGKSKTITVPAGKNVTITFKVPGSSSVKVRVVLDDGSVIGSAG [r5_664_TrMRF] show?
2.69

Please report the recorded folding stability dG unfold for SSMPLEEIVERVAEELGIPEEELERIESVDPGVVDPSPEGPTRVELRITLRDPHSDTTTEYRVEVEDPGGSA [r9_230_JUSTAS] .
-0.501

Fill in: folding stability dG unfold of SAGGDEDDWRPIEIPLYIRNPENGHLFQITPMKIWVPDNLTIEMEMEMFDPDDGKVEKHKMTFTIPAKSAGG [r13_206_TrROS] is ___
1.64

Could you tell me which folding stability dG unfold is on file for SAGGKIWIPMDFLKEIAEEGNIKEIEVNPDDGDMYTIKFPNLADKFGEPVTISIRRPPGGNPWIEIEPSAGG [r13_163_TrROS] ?
0.717

----------
- Assay Procedure: folding stability dG unfold from trypsin proteolysis; higher = more stable
Param threshold (2 kcal/mol) applies to folding stability dG unfold; output criterion met when value >= threshold, criterion not met when value < threshold.

Record excerpt, results attached:
> print(dat)
                        biopolymer.sequence  qualitative.label
1  SKTVEIPIRNPNGMQVNIMANPEKGKVMIHMGNNMPFENIKKALRELLPPGKDVDITTHPNGMAVIELKPSA [r9_933_TrROS]  criterion not met
2  SAGGSAKATLPEGVKIETKTFKLDGRKYMPFVFEAPDDDWVWVNEMRMDPNGKMEMETIWIPPDAVSAGGSA [r15_986_TrROS]  criterion not met
3  SAGGSAGGSAGGKVVKKVKVLTKTPKGGYKVIEVDFTDPSAVVEEAKKAGLEVLKVEEVSAGGSAGGSAGGS [r10_882_TrMRF]  criterion not met
4  SAGGKIKIVLSAEELEKKFGKSIEELAAELAKKLFPNKKVKVKKVKIEKDENGKEKLYVEVEIEPEKPSAGG [r13_723_TrROS_Hall]      criterion met
5  SAGGSAGGSASMKKKKFVVKTEEEAEKVIAELKAKVPKGTEVEIYIKNEDGTLEKYAIIKISAGGSAGGSAG [r3_92_JUSTAS]      criterion met

Can SAGGSAGGSAGGKVKIVSVSYDPETGKLTVEVEIPNPKKLLTVTTDNPNIPAEEIAKKLASAGGSAGGSAGG [r7_833_TrMRF] be said to have folding stability dG unfold at or above 2 kcal/mol?
criterion not met

Textbook exercise: given the entry SAGGSAMTAEEVEEKVREAFAALGVEAEVEVRESPEGGLEVLVVTGEDADLEEVKAALEELFGTDISAGGSA [r15_807_TrMRF] , state whether its folding stability dG unfold is greater than or equal to 2 kcal/mol.
criterion met

Please tell me: is the sequence SAGGSAGGSPSVLDQVKRMIQDRIQERFGLPPGYTVQVTIDVEIDDGGIRIKKIKAEIQPPDNSAGGSAGGS [r12_481_TrROS] at or over 2 kcal/mol in terms of folding stability dG unfold?
criterion met

Given SAGGSAMPLLIVDKNNNVTLISASSPEELEELLKKYNIKKIEPFPFPDGKALVFIAEYPDGIIYSGSAGGSA [r15_632_TrMRF] , state whether its folding stability dG unfold is at least 2 kcal/mol.
criterion not met

----------
- Assay Procedure: folding stability dG unfold from chymotrypsin proteolysis; higher = more stable
Each entry gets condition not met if its folding stability dG unfold stays under 0.09 kcal/mol, and condition met if its folding stability dG unfold is 0.09 kcal/mol or above.

> print(dat)
                        biopolymer.sequence  qualitative.label
1  SAGGSAGGSAGGSMKSVPVITTTTTVLPNGTTVTTTTVNNVTSSGTTSSTTTTVTPSLLSAGGSAGGSAGGS [r4_486_JUSTAS]  condition not met
2  SAGGSAGGPIKDSKGKFIVTFEFPNGLKKKFEVENIKNPEIEFNFNGKKVKTKIIEIKKGDESKSAGGSAGG [r6_575_TrMRF]  condition not met
3  SAGGSAGGRLLLVKITLPDGEEITIVLEFESEEEARAAAEALLPPGAKVEVRELSEEELEALLKSAGGSAGG [r6_267_TrROS_Hall]      condition met
4  SAGGSAEVELVKVEVNPDGPYVKATFRIPGGGDVAVLVFDPDRPNTARLIVRPPNNEPIAEIELPLSAGGSA [r15_974_TrMRF]      condition met

Hi, just wondering whether SAGGSAMQQLDITKTKWDPNTGTLSVTAKDPLTGEVTTYTIPRNGPTLNFPPGAELKSVETEPPPLSAGGSA [r15_959_JUSTAS] shows folding stability dG unfold of 0.09 kcal/mol or higher.
condition not met

----------
- Assay Procedure: folding stability dG unfold from trypsin proteolysis; higher = more stable
Below, each entry is listed with its recorded folding stability dG unfold.
Expressed in kcal/mol, but write only the number.

Example cases with answers are listed next.
> print(dat)
                        biopolymer.sequence  endpoint.unit  readout.value
1  SAGGSAGGSAGMTKTITVGDKKVNVTITPLPTPTTKVTITFPDGSTKTVTLPAGTPITLGSAGGSAGGSAGG [r11_525_JUSTAS]       kcal/mol          0.566
2  SAGGSAMEVKIIPGSKEAIINDPENGKPIPATIIEIEPIEPDKNLFKAKVKIPSNGGWKEVLVDLGSAGGSA [r15_209_TrMRF]       kcal/mol          -1.23
3  SAGGSAGGKKLEELKEKLKKLKPKPELEVEIKIVMSKEEAEKLAKELEKLPNIKKVRVEILEPDSAGGSAGG [r6_284_TrROS_Hall]       kcal/mol         -0.155

# get_value(readout='folding stability dG unfold', item= SAGGSAGGSAGGSSTSLIGNSTVTVDPVYVTDTGERGFVISADVPPSVSEAVVEAHVASSAGGSAGGSAGGS [r10_531_JUSTAS] )
0.869

Data request, read-out folding stability dG unfold, for KTLVIHAKTPEEILAAIKEAIKEGKTVVIEMSPELIEALKEAGFEIEKIEEVEEIDGKKIYRVVIEVKPKES [r1_173_TrROS_Hall]
1.66

Item under review: SAGMLVRVTLKYPDGKTIKIPFPYAKILSEETSNNETTFTIDSPESADKAVEAIKKEYPDIEVKVEPLESAG [r5_453_JUSTAS] . Reported folding stability dG unfold?
1.67

# input sequence: SAGGSAGGSAGGMPLNFSTVETEELPELGATVTTSTAPGYILTETRTPEGVEVQRYPALLSAGGSAGGSAGG [r7_280_JUSTAS] ; wanted: its folding stability dG unfold
0.86

Value source: the supplement of paper PMC12764529
